Data origin, for the record: PubChem BioAssay (NCI)

# System: SR leukemia
# Assay name: NCI tumour cell line growth inhibition, 48 h
Test readout: TGI (µM)

1. COc1cccc2c1C(=O)c1c(O)c3c(c(O)c1C2=O)C[C@@](O)(C(=O)CO)C[C@@H]3O[C@H]1C[C@H](N)[C@@H](O)[C@H](C)O1 : 1.07
2. O=C(O)NCC1CCCCC1 (tested in a mixture with another compound) : 72
3. CC(C)COCC(CN(Cc1ccccc1)c1ccccc1)N1CCCC1 (configuration not stated) : 5.34
4. N#CC1=C(N)Oc2c(sc3c(Br)cccc23)C1c1ccc(Br)cc1 (configuration not stated) : 5.91
5. Nc1nc(N)c2c(n1)NC(c1ccc(F)cc1)C1CCc3ccccc3C1=N2 (configuration not stated) : 4.14
6. COC(=O)C1CCCN1C(=O)[C@@H]1CCCN1C(=O)[C@H](Cc1c[nH]c2ccccc12)NC(=S)Nc1cc(C(F)(F)F)cc(C(F)(F)F)c1 (some centres not stated) : 5.03

---

# Test system: UACC-257 melanoma
# Assay name: NCI tumour cell line growth inhibition, 48 h; in the data active means GI50 below about 0.43 µM; inactive means the rest
Outcomes: True = active, False = inactive

1) COc1cccc(OCCCN)c1-c1cc(Nc2cnc(C#N)cn2)n[nH]1 : True
2) S=c1ssc(Oc2ccccc2)c1Cl : False
3) CCCCCCCCCCC(C(O)c1ccccc1)N1CCCCC1 (stereo not given) : False
4) COc1cc2c(cc1OCCCCCOc1ccc(-n3c(C)nc4ccccc4c3=O)cc1)N=C[C@@H]1CCCN1C2=O : False
5) Oc1ccccc1C=Nc1nc(SCc2ccccc2)nc2[nH]ncc12 : False
6) O=C(Nc1ccc2[nH]c(=S)sc2c1)Nc1ccccc1F : False
7) CCCCCCCCCCCCOC1C(C(COC2OC(C3COC(C)(C)O3)C3OC(C)(C)OC23)NC(=O)NS(=O)(=O)c2ccccc2)OC2OC(C)(C)OC21 (stereo not given) : False
8) O=C1C=CC[C@H](/C=C/c2ccccc2)O1 : False
9) NCCN.NCCN.O=C([O-])CCl.O=C([O-])CCl.[Co+3].[O-][Cl+3]([O-])([O-])[O-] : False
10) O=S(=O)(c1cccc2c(Cl)cccc12)N1CCCNCC1 : False

---

# System: OVCAR-4 ovarian
# Assay name: NCI tumour cell line growth inhibition, 48 h
Where a SMILES comes first, the peptide text is derived from it. The star is where a group is joined. Ethyl(2-NMe3+) = C[N+](C)(C)CC*; Boc = CC(C)(C)OC(=O)*
# reported TGI; entries follow
Test readout: TGI

1) CN(C(=O)C1CCCCCC1=O)c1ccccc1Cl (centres undefined) : > 100 µM
2) Cc1c(F)c(N)c2c(=O)cc(-c3ccc(N)c(F)c3)oc2c1F : 48.8 µM
3) COC(=O)c1c2c(cc3c1CC1(Cc4ccc(C(C)=O)cc4C1)C3)CCC2 (centres undefined) : > 100 µM
4) CC(NC(=O)C(Cc1ccc(OCC[N+](C)(C)C)cc1)NC(=O)OC(C)(C)C)C(=O)NC(Cc1ccccc1)C(=O)NCC(N)=O (centres undefined) (Boc-Y(Ethyl(2-NMe3+))AFG-NH2; configuration not given here) : > 100 µM

---

# Tested on: SK-MEL-2 melanoma
# Assay name: NCI tumour cell line growth inhibition, 48 h
Test readout: TGI (µM)

1. O=C(O)C1C(C(=O)O)C23CC2(C(=O)O)C2(C(=O)O)CCC3=C3CCCC312 (stereo not drawn) : 38.8
2. O=C(O)CNS(=O)(=O)c1ccc(NC(=O)CI)cc1 : 73.6
3. Cc1ccc(NC(=O)C(=O)CC(=O)c2c(C)n([O-])c3ccccc3[n+]2=O)cc1 : 53
4. CCN1Cc2c(ccc(F)c2C#N)O[C@@H](C)CNC(=O)c2c(N)nn3ccc1nc23 : 5.22
5. CC(C)COCC(CN(Cc1ccccc1)c1ccccc1)N1CCCC1 (stereo not drawn) : 8
6. C[C@]12C[C@@H](c3ccccc3)Nc3ccccc3N1C(c1ccccc1)=NO2 : 76.3
